Molecular target: SUDc5b (SARS coronavirus TOR2, UniProt P0C6U8 1207-1380)
Experiment: zone-interference gel electrophoresis
parameterMeasured: Kd

ATGTAATGCGGGGGGCACTACGTT (ssDNA) [3(-)] :: ~1000 nM

We next turn to a different binder, shown below.
Kd for CATCTATGAGGGGGGTTTACTATC (ssDNA) [2(+)] ? ~1000 nM
